The values you see were collected from patent US4826856A.

# experimentalProtocol: Bioavailability after oral administration in normal volunteers
# Format: in vivo, human
# conditionLabel: human, plasma, po, 20 mg, oral 20 mg, volunteer 1; read-out: T max
reportedEndpoint: Tmax (h)
Quick note: give the figure in h, leave out the unit.

Consider CCOC(=O)C1=C(C)NC(C)=C(C(=O)OCCN2CCCCC2)C1c1cccc([N+](=O)[O-])c1 (stereo not shown) . Its measured Tmax is 1.5

* * *

# experimentalProtocol: Bioavailability after oral administration in normal volunteers
# Assay type: in vivo, human
# conditionLabel: human, plasma, po, 20 mg, oral 20 mg, volunteer 3; read-out: T max
reportedEndpoint: Tmax (h)
All answers are understood in h, so give the number only.

Sample CCOC(=O)C1=C(C)NC(C)=C(C(=O)OCCN2CCCCC2)C1c1cccc([N+](=O)[O-])c1 (stereo not shown) [YS 201] ; Tmax observed: 2
